Data provenance: patent US20020137929A1

test system: SAGPY (Arrowhead (Pygmaea)); test: Preemergence weed control under flooded paddy conditions; format: in vivo, Sagittaria pygmaea; details: 0.2500 kg/ha, rated 3-4 weeks after treatment
Below: a set of entries, each annotated with reported Herbicidal rating SAGPY.
// print number alone

Use these answered entries as a reference point.
CCOC(=O)COc1ccccc1CC1S/C(=N/c2cc(-n3c(=O)cc(C(F)(F)F)n(C)c3=O)c(F)cc2Cl)N(CC(=O)OCC)C1=O (stereo not drawn) [Compound 42]    3.0
COC(=O)CN1C(=O)CSC1=Nc1cc(-n2c(=O)cc(C(F)(F)F)n(C)c2=O)c(F)cc1Cl [Compound 17]    4.0

Below: the item to evaluate.
Request: Tell me its Herbicidal rating SAGPY given CCOC(=O)CN1C(=O)C(CC(=O)OCc2ccccc2)OC1=Nc1cc(-n2c(=O)cc(C(F)(F)F)n(C)c2=O)c(F)cc1Cl (stereo not drawn) [Compound 40] as the entry.
Result: 0.0

---

test system: IPOHE (Morningglory, Ivyleaf); assay: Preemergence herbicidal evaluation; type: in vivo, Ipomoea hederacea; conditions: rate 0.2500 kg/ha; rated 4-5 weeks after treatment
MEASURED_QUANTITY: IPOHE preemergence herbicidal rating

CCOC(=O)CN1C(=O)C(=C2CCCC2)SC1=Nc1cc(-n2c(=O)cc(C(F)(F)F)n(C)c2=O)c(F)cc1Cl    1.0

Request: Tell me its IPOHE preemergence herbicidal rating given CCC1SC(=Nc2cc(-n3c(=O)cc(C(F)(F)F)n(C)c3=O)c(F)cc2Cl)N(C)C1=O (stereo not drawn) as the entry.
Result: 9.0

Request: Tell me its IPOHE preemergence herbicidal rating given `COC(=O)CN1C(=O)CSC1=Nc1cc(-n2c(=O)cc(C(F)(F)F)n(C)c2=O)c(F)cc1Cl` as the entry.
Result: 9.0

---

Below: a set of entries, each annotated with reported Herbicidal rating ORYSAT (rice tolerance).
test system: ORYSAT (Rice, Tebonnet); assay: Rice tolerance to post-transplant applications, flooded paddy conditions (Table III); format: in vivo, Oryza sativa, (L.) Tebonnet; details: 0.2500 kg/ha; post-transplant rice, flooded paddy; rated 3-4 weeks after treatment
// print number alone

CCOC(=O)CN1C(=O)C[S+]([O-])/C1=N/c1cc(-n2c(=O)cc(C(F)(F)F)n(C)c2=O)c(F)cc1Cl (stereo not shown)    3.0
CCOP(=O)(CN1C(=O)CSC1=Nc1cc(-n2c(=O)cc(C(F)(F)F)n(C)c2=O)c(F)cc1Cl)OCC    3.0

Request: Tell me its Herbicidal rating ORYSAT (rice tolerance) given `O=C1CSC(=Nc2cc(N3C(=O)C4=C(CCCC4)C3=O)c(F)cc2Cl)N1c1ccccc1` as the entry.
Result: 2.0

Request: Tell me its Herbicidal rating ORYSAT (rice tolerance) given CCOC(=O)COc1ccccc1CC1S/C(=N/c2cc(-n3c(=O)cc(C(F)(F)F)n(C)c3=O)c(F)cc2Cl)N(CC(=O)OCC)C1=O (stereo not shown) as the entry.
Result: 0.0

---

test system: SAGPY (Arrowhead (Pygmaea)); assay: Preemergence weed control under flooded paddy conditions; assay type: in vivo, Sagittaria pygmaea; conditions: 0.0625 kg/ha, rated 3-4 weeks after treatment
MEASURED_QUANTITY: herbicidal effect rating, SAGPY
// print number alone

Use these answered entries as a reference point.
Cn1c(C(F)(F)F)cc(=O)n(-c2cc(N=C3SCC(=O)N3CC(F)(F)F)c(Cl)cc2F)c1=O    3.0
Cn1c(C(F)(F)F)cc(=O)n(-c2cc(N=C3SCC(=O)N3C3CC3)c(Cl)cc2F)c1=O    0.0
Cn1c(C(F)(F)F)cc(=O)n(-c2cc(N=C3SCC(=O)N3Cc3ccco3)c(Cl)cc2F)c1=O    3.0
Cn1c(C(F)(F)F)cc(=O)n(-c2cc(N=C3SCC(=O)N3Cc3cccc(C(F)(F)F)c3)c(Cl)cc2F)c1=O    0.0
Cn1c(C(F)(F)F)cc(=O)n(-c2cc(N=C3SCC(=O)N3Cc3ccccc3Cl)c(Cl)cc2F)c1=O    0.0

Request: Tell me its herbicidal effect rating, SAGPY given `COc1ccc(CN2C(=O)CSC2=Nc2cc(-n3c(=O)cc(C(F)(F)F)n(C)c3=O)c(F)cc2Cl)c(OC)c1` as the entry.
Result: 0.0

---

Below: a set of entries, each annotated with reported Herbicidal rating ECHORC.
tested on: ECHORC (Watergrass (Calif.)); assay: Preemergence weed control under flooded paddy conditions; assay type: in vivo, Echinochloa oryzoides; details: 0.1250 kg/ha, rated 3-4 weeks after treatment
// print number alone

Use these answered entries as a reference point.
CCOC(=O)CN1C(=O)C(CC(=O)NC)SC1=Nc1cc(-n2c(=O)cc(C(F)(F)F)n(C)c2=O)c(F)cc1Cl (stereo not shown) [Compound 57]    2.0
Cn1c(C(F)(F)F)cc(=O)n(-c2cc(N=C3SCC(=O)N3[C@@H](Cc3ccccc3)C(=O)O)c(Cl)cc2F)c1=O [Compound 53]    2.0
CN1C(=O)CSC1=Nc1cc(N2C(=O)C3=C(CCCC3)C2=O)c(F)cc1Cl [Compound 1]    6.0

Request: Tell me its Herbicidal rating ECHORC given CCOP(=O)(CN1C(=O)CSC1=Nc1cc(-n2c(=O)cc(C(F)(F)F)n(C)c2=O)c(F)cc1Cl)OCC [Compound 35] as the entry.
Result: 3.0

---

Below: a set of entries, each annotated with reported Herbicidal rating ECHORC.
test system: ECHORC (Watergrass (Calif.)); assay: Preemergence weed control under flooded paddy conditions; assay type: in vivo, Echinochloa oryzoides; conditions: 0.2500 kg/ha, rated 3-4 weeks after treatment
// print number alone

CCOC(=O)CN1C(=O)C(CC(=O)O)O/C1=N/c1cc(-n2c(=O)cc(C(F)(F)F)n(C)c2=O)c(F)cc1Cl (stereo not drawn)    7.0

Request: Tell me its Herbicidal rating ECHORC given CCC1SC(=Nc2cc(-n3c(=O)cc(C(F)(F)F)n(C)c3=O)c(F)cc2Cl)N(C)C1=O (stereo not drawn) as the entry.
Result: 2.0

Request: Tell me its Herbicidal rating ECHORC given `Cn1c(C(F)(F)F)cc(=O)n(-c2cc(N=C3SCC(=O)N3CCC(=O)O)c(Cl)cc2F)c1=O` as the entry.
Result: 5.0

Request: Tell me its Herbicidal rating ECHORC given `CCOC(=O)CN1CCSC1=Nc1cc(-n2nc(C)n(C(F)F)c2=O)c(F)cc1Cl` as the entry.
Result: 9.0

Request: Tell me its Herbicidal rating ECHORC given `C=CCN1C(=O)CSC1=Nc1cc(-n2c(=O)cc(C(F)(F)F)n(C)c2=O)c(F)cc1Cl` as the entry.
Result: 9.0

Request: Tell me its Herbicidal rating ECHORC given `Cn1c(C(F)(F)F)cc(=O)n(-c2cc(N=C3SCC(=O)N3[C@@H](Cc3ccccc3)C(=O)O)c(Cl)cc2F)c1=O` as the entry.
Result: 3.0

---

Test system: TRZAWR (Wheat, Winter, cv Riband)
Assay: Preemergence herbicidal evaluation
Format: in vivo, Triticum aestivum
Conditions: rate 0.0625 kg/ha; rated 4-5 weeks after treatment
Text: Results of herbicide evaluation are expressed on a rating scale (0-9). The scale is based upon a visual observation of plant stand, vigor, malformation, size, chlorosis and overall plant appearance as compared with a control. […] The compounds evaluated are reported by compound number given in Example 37.
Below: a set of entries, each annotated with reported Preemergence herbicidal rating TRZAWR.

Use these answered entries as a reference point.
CCOC(=O)CN1C(=O)C(Cc2ccccc2OC(C)C(=O)O)S/C1=N/c1cc(-n2c(=O)cc(C(F)(F)F)n(C)c2=O)c(F)cc1Cl (stereo not shown)    0.0
COC(=O)CCN1C(=O)CSC1=Nc1cc(-n2c(=O)cc(C(F)(F)F)n(C)c2=O)c(F)cc1Cl    0.0
Cn1c(C(F)(F)F)cc(=O)n(-c2cc(N=C3SCC(=O)N3CC(=O)OCC3CC3)c(Cl)cc2F)c1=O    0.0

Below: the item to evaluate.
Request: Quote Preemergence herbicidal rating TRZAWR with test system TRZAWR (Wheat, Winter, cv Riband) for CCOC(=O)CN1C(=O)C(SC)SC1=Nc1cc(-n2c(=O)cc(C(F)(F)F)n(C)c2=O)c(F)cc1Cl (stereo not shown)
Result: 1.0

---

system: ORYSAT (Rice, Tebonnet); assay: Preemergence herbicidal evaluation; assay type: in vivo, Oryza sativa, (L.) Tebonnet; conditions: rate 0.0625 kg/ha; rated 4-5 weeks after treatment
MEASURED_QUANTITY: Preemergence herbicidal rating ORYSAT
// print number alone

Use these answered entries as a reference point.
Cn1c(C(F)(F)F)cc(=O)n(-c2cc(/N=C3/SCC(=O)N3CC(=O)O)c(Cl)cc2F)c1=O [Compound 52]    0.0
C#CCOC(=O)CC1SC(=Nc2cc(-n3c(=O)cc(C(F)(F)F)n(C)c3=O)c(F)cc2Cl)N(CC(=O)OCC)C1=O (stereo not shown) [Compound 59]    0.5

Request: Quote Preemergence herbicidal rating ORYSAT with test system ORYSAT (Rice, Tebonnet) for COC(=O)CCN1C(=O)CSC1=Nc1cc(-n2c(=O)cc(C(F)(F)F)n(C)c2=O)c(F)cc1Cl [Compound 28]
Result: 0.0

Request: Quote Preemergence herbicidal rating ORYSAT with test system ORYSAT (Rice, Tebonnet) for CCOC(=O)CCN1C(=O)CSC1=Nc1cc(-n2c(=O)cc(C(F)(F)F)n(C)c2=O)c(Cl)cc1Cl [Compound 32]
Result: 0.0
